Here the recorded melting point is given for each entry.

Check out these entries, answers already filled in.
Task: Need melting point, item `CCN1CCC(c2cc3ccc(C)cc3c(=O)[nH]2)CC1`
Output: 239 to 241 °C

Task: Need melting point, item `CCCn1nc(C)c([N+](=O)[O-])c1C(N)=O`
Output: 136 to 138 °C

Task: Need melting point, item `CCOc1ncnc2c(N3CCOCC3)nc(N3CCNCC3)nc12`
Output: 168 to 170 °C

Task: Need melting point, item `O=C(Nc1ccc(Oc2ccccc2)cc1)N1CCN(c2ncnc3cc(F)c(F)cc23)CC1`
Output: 177 to 178 °C

Task: Need melting point, item Cc1ccc2c(=O)cc(CS(C)=O)oc2c1C (stereo not given)
Output: 205 to 209 °C

Task: Need melting point, item `Cn1ccc(Nc2ccc([N+](=O)[O-])cc2[N+](=O)[O-])n1`
Output: 150 °C

Task: Need melting point, item `Cc1c(C=NO)c2ccccc2n1C(=O)c1ccc(Cl)cc1`
Output: 152 °C

Task: Need melting point, item `COC(=O)c1cc2ccc(C(=O)NC(CO[Si](C)(C)C(C)(C)C)CO[Si](C)(C)C(C)(C)C)cc2[nH]1`
Output: 127 to 129 °C

New cases:
Task: Need melting point, item CCCCCC(OC(C)=O)c1ccccc1COc1cccc2ccc(=O)[nH]c12 (stereo not given)
Output: 92 to 95 °C

Task: Need melting point, item `COc1ccc(-c2nc3cnncc3[nH]2)c(N(C)C)c1`
Output: 226 °C

###

Here the recorded melting point is given for each entry.

Check out these entries, answers already filled in.
Task: Need melting point, item CCCNc1nc(=O)n(C2CC(N=[N+]=[N-])C(CO)O2)cc1C (stereo unspecified)
Output: 59 to 62 °C

Task: Need melting point, item `COc1ccc(C2=C(c3ccccc3)CCCc3cc(O)ccc32)cc1`
Output: 232 to 233 °C

Task: Need melting point, item `O=C1c2cccc3c4c(cc(c23)C(=O)N1O)COCO4`
Output: 314 to 315 °C

Task: Need melting point, item `CC(=O)CC(=O)NCc1ccccc1`
Output: 84 to 86 °C

New cases:
Task: Need melting point, item `C=C(Br)C(=O)Nc1ccccc1`
Output: 90.5 to 92.5 °C

Task: Need melting point, item `O=C1C=C(Nc2cc(F)ccc2F)CCN1`
Output: 252 to 255 °C

Task: Need melting point, item `O=C(c1ccccc1)c1cc2ccnc(N(Cc3ccccc3)Cc3ccccc3)c2[nH]1`
Output: 122 to 124 °C

Task: Need melting point, item `COC(=O)c1cccc2[nH]c(=O)c(-c3csc(-c4ccncc4)n3)cc12`
Output: > 250 °C

Task: Need melting point, item `CCCCCCCCCCCCCCCCC(NC(C)=O)(C(=O)OCC)C(=O)OCC`
Output: 65 to 67 °C

Task: Need melting point, item `ClCc1cccc2nnsc12`
Output: 78 to 80 °C

Task: Need melting point, item `CN(CCCCCCCNC(=NCCSCc1csc(NC(=N)N)n1)NC#N)CCN(Cc1ccc(F)cc1)c1ccccn1`
Output: 118 °C

###

Here the recorded melting point is given for each entry.

Task: Need melting point, item `CCOC(=O)c1ccc(-c2ccc(C#N)cc2)cc1`
Output: 114 to 115 °C

Task: Need melting point, item Cc1ccccc1Sc1ccc2c(c1)CCC1N(C)C(=O)CCC21C (single isomer, unassigned; (+))
Output: 105 to 106 °C

Task: Need melting point, item `CN1NC(c2ccccc2Cl)=NN=C1c1ccccc1Cl`
Output: 115 to 116 °C

###

Observation Type: melting point

Check out these entries, answers already filled in.
Task: Need melting point, item `COc1ccc2sc(C(N)=O)c(SCCN3CCOCC3)c2c1`
Output: 158 to 160 °C

Task: Need melting point, item `Cc1cccc(-c2nc(N)ncc2-c2ccc(=O)n(C)n2)c1`
Output: 214 °C

Task: Need melting point, item `CC(C)NC(=O)c1ccc(-c2ccc3nnn(Cc4ccc5ncccc5c4)c3n2)cc1F`
Output: 177 to 179 °C

Task: Need melting point, item `CCOC(=O)C(=O)Nc1ccc(Cl)cc1C(F)(F)F`
Output: 55 to 58 °C

# context switch: different molecule, same melting point
Task: Need melting point, item `Cc1cnc(-c2cc3c(O)cccc3s2)o1`
Output: 188 to 189 °C

###

Here the recorded melting point is given for each entry.

Check out these entries, answers already filled in.
Task: Need melting point, item C=CCC1(C(C)CC(=O)O)C(=O)NC(=O)NC1=O (configuration not stated)
Output: 200 °C

Task: Need melting point, item CC1=CC(c2ccccc2)C(c2cccs2)=NN1 (configuration not stated)
Output: 150 °C

Task: Need melting point, item `O=[N+]([O-])c1ccc(F)c(-c2ccc3ncccc3c2)c1F`
Output: 152 to 153 °C

Task: Need melting point, item `CCOCn1c(Oc2ccccc2)c(CC)c(=O)[nH]c1=O`
Output: 130 to 131 °C

New cases:
Task: Need melting point, item `c1cc(CN2CCCCC2)cc(OCCCNc2nc3ccccc3[nH]2)c1`
Output: 146 to 148 °C

Task: Need melting point, item `CC(C)(C)CC(C)(C)c1ccc2c(c1)C(=O)NS2(=O)=O`
Output: 213 to 215 °C

Task: Need melting point, item `CCn1c(=O)c2cccc3c2n(c1=O)-c1cc(C(F)(F)F)ccc1S3`
Output: 150 to 152 °C

Task: Need melting point, item Cc1ccccc1C(Nc1ccncc1)c1ccccc1 (configuration not stated)
Output: 141 to 143 °C

Task: Need melting point, item CC1(CNc2ccccc2)SC2C(NC(=O)Cc3ccccc3)C(=O)N2C1C(=O)OCC(Cl)(Cl)Cl (configuration not stated)
Output: 148 to 149 °C

###

Here the recorded melting point is given for each entry.

Task: Need melting point, item `CCSc1cc(C)nc(SCC)c1NC(=O)CCCSc1nc2ccccc2[nH]1`
Output: 160 to 161 °C

Task: Need melting point, item `COC(=O)/C=C/c1cccc(OCCCCCOC(C)=O)c1`
Output: 65 to 67 °C

Task: Need melting point, item CCCN(CCC)C1Cc2cc3c(=O)[nH]n(Cc4ccccc4)c(=O)c3cc2C1 (stereo unspecified)
Output: 219 to 220 °C

Task: Need melting point, item CC(=O)NCCC1CCc2ccc3nn(C)c(C)c3c21 (stereo unspecified)
Output: 146 to 149 °C

Task: Need melting point, item `CC=C1C=C(OC)N=C(N)N1`
Output: 119 to 122 °C

Task: Need melting point, item `Nc1ncc(F)cc1I`
Output: 70 °C

###

Here the recorded melting point is given for each entry.

Task: Need melting point, item `CSc1cc2c(cc1C(F)(F)F)N(C(=O)Nc1cccc(C(=O)NCCN3CCOCC3)c1)CC2`
Output: 198 to 200 °C

Task: Need melting point, item `COc1ccc2c(c1)CC(=O)N2C`
Output: 93 to 94 °C

Task: Need melting point, item `CCCCOCCOc1ccc(-c2ccc3c(c2)C=C(C(=O)Nc2ccc(/C(Cc4nccn4CCC)=N/O)cc2)CCN3CC(C)C)cc1`
Output: 154 °C

Task: Need melting point, item `Cc1coc2ncnc(N)c12`
Output: 240 to 242 °C

Task: Need melting point, item CCO/C(=N/OC(C)=O)C1Cc2cc(C(=O)CC)c(O)c(Cl)c2O1 (stereo not given)
Output: 140 to 142 °C

###

Here the recorded melting point is given for each entry.

Task: Need melting point, item CCCc1c(OCC2Cc3cc(C(=O)CCC(=O)O)ccc3O2)ccc(C(C)=O)c1O (stereo not given)
Output: 80 °C

Task: Need melting point, item `Oc1ccc(CCNC[C@H](O)COc2ccccc2)cc1`
Output: 118 to 119 °C

Task: Need melting point, item `CS(=O)(=O)Nc1ccc(Cl)cc1C(=Cc1ccc2ccccc2c1)C(N)=O`
Output: 179 to 184 °C

New cases:
Task: Need melting point, item `CNc1nnc(-c2ccc3ncn(-c4ccc(SC)cc4)c3c2)o1`
Output: 224 to 225 °C

Task: Need melting point, item `COc1cc(Nc2c(C#N)cnc3cc(-c4ccc(C=O)cc4)sc23)cc(OC)c1OC`
Output: 268 to 270 °C

Task: Need melting point, item `COc1ccc(-c2cc(C(F)(F)F)n3ncc(-c4ccncc4)c3n2)cc1`
Output: 244 °C

Task: Need melting point, item `O=[N+]([O-])C=C(NCCSCc1nccs1)NCCSCc1nccs1`
Output: 50 to 51 °C

Task: Need melting point, item `Cc1oc(-c2ccccc2)nc1CCOc1ccc(CN(O)C(N)=O)cc1F`
Output: 135 to 136 °C

Task: Need melting point, item `O=C(O)Cn1c(-c2ccc(Cl)cc2)nc2ccc(Cl)nc21`
Output: > 250 °C

Task: Need melting point, item `CCCCc1ccc(NCCS(=O)(=O)NCCCOc2cccc(CN3CCCCC3)c2)cc1`
Output: 115 to 119 °C
